- system.under.test: T1, Mouse IL2Rγ extracellular domain expressed with a C-terminal myc-myc-hexahistidine tag (mouse)
- T1 construct: whole entry is the tagged construct; also called mIL-2Rg-MMH
- T1 chain: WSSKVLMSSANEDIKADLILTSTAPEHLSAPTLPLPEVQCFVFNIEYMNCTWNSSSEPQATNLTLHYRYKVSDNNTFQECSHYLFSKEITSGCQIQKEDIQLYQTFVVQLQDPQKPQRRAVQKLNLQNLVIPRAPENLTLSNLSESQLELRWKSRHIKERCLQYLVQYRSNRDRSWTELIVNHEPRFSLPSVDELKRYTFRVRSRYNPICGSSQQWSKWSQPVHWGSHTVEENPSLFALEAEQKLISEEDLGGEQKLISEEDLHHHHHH
- test.name: SPR Biacore 4000, anti-hFc-captured mAb, 37 C
- Experimental: Equilibrium dissociation constants (KD values) for IL-2Rγ binding to purified anti-IL2Rγ monoclonal antibodies were determined using a Biacore 4000 instrument equipped with a real-time surface plasmon resonance biosensor. […] The dissociation of monoclonal antibody bound IL2Rγ reagents were monitored for 8-10 minutes in HBS-ET running buffer. […] Binding dissociation equilibrium constants (KD) and dissociative half-lives (t_{1/2}) were calculated from the kinetic rate constants as: […]
metric.name: 100 nM Ag Bound (RU)
Give the value, in units of RU, as a plain number.

Query: Find the recorded 100 nM Ag Bound belonging to H4H12884P (antibody, human IgG4 S228P, kappa, V domains shown, fully human anti-IL2Rgamma mAb, human IgG4 Fc) VH: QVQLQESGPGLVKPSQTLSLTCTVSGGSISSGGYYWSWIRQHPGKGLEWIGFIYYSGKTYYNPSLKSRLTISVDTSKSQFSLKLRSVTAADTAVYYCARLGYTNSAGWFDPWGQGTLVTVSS VL: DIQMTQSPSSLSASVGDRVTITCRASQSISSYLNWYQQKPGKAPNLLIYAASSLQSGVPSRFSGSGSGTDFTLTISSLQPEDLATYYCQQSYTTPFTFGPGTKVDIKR and report it.
Response: 1
